# TARGET: T1, endogenous human ErbB3 expressed on human cancer cells (MCF7; A431NS) (human, UniProt P21860 20-1342)
# T1 construct: whole, on cells; also called Her3; HER3/c-ErbB3
# T1 sequence (P21860 20-1342): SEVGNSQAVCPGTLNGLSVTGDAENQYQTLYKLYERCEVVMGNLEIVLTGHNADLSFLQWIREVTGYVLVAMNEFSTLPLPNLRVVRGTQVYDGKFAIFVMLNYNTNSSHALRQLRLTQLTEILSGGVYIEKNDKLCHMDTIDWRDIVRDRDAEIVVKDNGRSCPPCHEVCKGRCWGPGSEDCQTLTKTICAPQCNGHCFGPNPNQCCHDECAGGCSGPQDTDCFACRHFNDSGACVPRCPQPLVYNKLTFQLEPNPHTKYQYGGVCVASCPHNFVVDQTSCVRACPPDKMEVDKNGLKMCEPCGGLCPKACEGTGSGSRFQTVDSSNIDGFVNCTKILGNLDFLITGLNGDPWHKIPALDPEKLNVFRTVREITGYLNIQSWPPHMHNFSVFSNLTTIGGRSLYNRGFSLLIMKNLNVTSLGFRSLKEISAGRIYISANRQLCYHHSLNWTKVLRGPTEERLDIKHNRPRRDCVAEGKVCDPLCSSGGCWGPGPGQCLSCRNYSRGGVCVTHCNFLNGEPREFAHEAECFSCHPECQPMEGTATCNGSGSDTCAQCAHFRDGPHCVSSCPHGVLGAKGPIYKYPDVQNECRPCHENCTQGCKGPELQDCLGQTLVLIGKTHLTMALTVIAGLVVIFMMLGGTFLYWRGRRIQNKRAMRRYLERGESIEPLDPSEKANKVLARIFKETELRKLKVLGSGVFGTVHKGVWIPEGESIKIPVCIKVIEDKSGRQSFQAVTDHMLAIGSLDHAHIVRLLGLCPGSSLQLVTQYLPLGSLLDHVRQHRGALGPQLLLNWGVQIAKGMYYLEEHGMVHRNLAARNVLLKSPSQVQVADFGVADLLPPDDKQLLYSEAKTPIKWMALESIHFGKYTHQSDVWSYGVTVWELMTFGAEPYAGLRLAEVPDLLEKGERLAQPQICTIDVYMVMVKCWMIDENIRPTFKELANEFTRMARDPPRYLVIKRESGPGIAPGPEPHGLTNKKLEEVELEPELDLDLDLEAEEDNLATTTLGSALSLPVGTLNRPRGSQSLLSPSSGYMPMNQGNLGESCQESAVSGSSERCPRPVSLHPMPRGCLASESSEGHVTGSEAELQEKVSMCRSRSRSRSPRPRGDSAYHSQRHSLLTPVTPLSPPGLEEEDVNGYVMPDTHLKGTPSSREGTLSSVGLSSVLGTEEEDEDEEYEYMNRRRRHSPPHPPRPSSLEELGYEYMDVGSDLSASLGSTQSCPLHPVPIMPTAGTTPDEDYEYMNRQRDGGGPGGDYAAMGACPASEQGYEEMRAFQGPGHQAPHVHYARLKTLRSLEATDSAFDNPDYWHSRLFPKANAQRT
# METHOD SUMMARY: flow cytometry on MCF7 cells
pEC50: −log10 of the molar value.

- BINDER: "B08 (antibody, V domains shown) VH: QVQLVQSGAEVKKPGASVKVSCKASGYTFTSHYGISWVRQAPGQGLEWMGSITPHNGKTNYVQMFQGRVTMTTDTSTRTVYMELRNLRSDDTAVYYCARDWNFADFDYWGQGTLVTVSS VL: QSVLTQPPSASGSPGQSVTISCTGTSSDVGGYNFVSWYQQHPGKAPKLMIYDVTNRPSGVSNRFSGSKSGNTASLTISGLQAEDEADYYCSSYTSSSTPYVFGTGTKLTVL"
  pEC50: 10.04
- BINDER: "D01 (antibody, V domains shown) VH: EVQLVQSGAEVRKPGASVKVSCKASQYTFTNYHIHWVRQVPGQGLEWMAMINPSNGNTNYGQRFQDRVTLTRDTSTSTAYMELSSLRSEDTAVYLCARDGLTFGDLLAYWGQGTLVTVSS VL: QSVLTQPPSASGTPGQSVTISCSGSSSNIGGNTVNWYQQFPGTAPKLLMYINNLRPAGVPDRFSGSKSGTSASLVISGLQSEDEADYYCASWDDSLSGLVFGGGTKLTVL"
  pEC50: 8.40
- BINDER: "A02 (antibody, V domains shown, also called ErbB3-A02; anti-ErbB3 A02) VH: EVQLVQSGAEVKKPGASVTVSCKPSGYAFTDYYIHWVRQAAGQGLEWMGWVDPRSGATVYAQNFQGRVTMTRDRSSSTVYMDLSRVTSDDTALYFCGRDNYGIFDYWGQGTLVTVSS VL: QPVLTQPPSVSAAPGQRVTISCSGSSSNIGNNYLSWYQQLPGTAPKLLIYDDTKRPSGIPDRFSGSKSGTSATLGITGLQTGDEADYYCGTWDGSLDAEVFGTGTKLTVL"
  pEC50: 8.91
- BINDER: "C03 (antibody, V domains shown) VH: QVQLVQSGAEVKKPGASVKVSCKASGYTFTSYGISWVRQAPGQGLEWMGWISAYNGNTNYAQKLQGRVTMTTDTSTSTAYMELRSLRSDDTAVYYCAREAYAWGAFDIWGQGTMVTVSS VL: SYELMQPPSVSVAPGKTARITCGGNNIGSKSVHWYQQKPGQAPVLVIYYDSDRPSGIPERFSGSNSGNTATLTISRVEAGDEADYYCQVWDSSRDHAVFGGGTKLTVL"
  pEC50: 9.37
- BINDER: "A04 (antibody, V domains shown, also called ErbB3-A04; anti-ErbB3 A04) VH: QVQLQQSGPGLVQPSQTLSLTCDISGDSVSSTGAAWNWIRQSPSRGLEWLGRTYYRSKWYNDYALSVRSRITITPDTSKNQFSLQLNSVTPEDTAVYYCVRDGDVGLDAFDIWGQGTMVTVSS VL: QTVVTQAPSVSVAPGQTARITCGGNNIGSKSVHWYQQKPGQAPVLVVYDDSDRPSGIPERFSGSNSGNTATLTISRVEAGDEADYYCQVWDSTSDHVVFGGGTKVTVL"
  pEC50: 9.79
- BINDER: "D04 (antibody, V domains shown) VH: EVQLLESGGGLVKPGGSLRLSCAASGFTFSSYSMNWVRQAPGKGLEWVSSISSSSSYIYYADSVKGRFTISRDNAKNSLYLQMNSLRAEDTAVYYCARGFGEDLFDYWGQGTLVTVSS VL: QSVLTQPPSVSVAPGKTARITCGGNNIGSKSVHWYQQKPGQAPLLVIYYDTDRPSGIPERFSGSNSENTATLTISGVEAGDEADYYCQVWDIGSDQVVFGTGTKVTVL"
  pEC50: 10.62
- BINDER: "A11 (antibody, V domains shown, also called ErbB3-A11) VH: QVQLVQSGRGLVQPGRSLRLSCAASGFTFDEYAMHWVRHAPGKGLEWVAGMSWNGGGIGYADSVKGRFTISRDNSKNTLYLQMNSLRAEDTAVYYCAREGAGGSYPTDAFDIWGQGTTVTVSS VL: IVLTQSPSSLSASVGDRVTITCQASHDISNYLTWYQHRPGRAPKLLIFDASRLETGVPSRFSGYGSGKDFTFTISGLQPEDFATYYCQHYADLPSFGQGTKLEIK"
  pEC50: 9.66
- BINDER: "B11 (antibody, V domains shown) VH: QVQLVQSGRGLVQPGRSLRLSCAASGFTFDEYAMHWVRHAPGKGLEWVAGMSWNGGGIGYADSVKGRFTISRDNSKNTLYLQMNSLRAEDTAVYYCAREGAGGSYPTDAFDIWGQGTTVTVSS VL: EIVLTQSPSSLSASVGDRVTITCQASHDISNYLTWYQHRPGRAPKLLIFDASRLETGVPSRFSGYGSGKDFTFTISGLQPEDFATYYCQHYADLPSFGQGTKVDIK"
  pEC50: 10.31
- BINDER: "D07 (antibody, V domains shown) VH: QVQLVESGGGLVQPGGSLRLSCVASGFTFSSYWMSWVRQAPGKGLEWVAYINLDGSEKDYVDSVKGRFTISRDNAKNSLYLQMNSLRAEDTALYYCAKAYSSSWLLSGGMDVWGQGTTVTVSS VL: SYELTQPASVSGSPGQSITISCTGTSSDVGNYNSVSWYQQHPGKAPELMIYDVNNRPSGVSNRFSGSKSGNTASLTISGLQAEDEADYYCSSYTSSSTLVFGGGTQLTVLG"
  pEC50: 9.03
- BINDER: "D08 (antibody, V domains shown) VH: QVQLVESGGGLVKPGGSLRLSCAASGFTSSSYVLNWVRQAPGKGLEWVSSISSRGSYIYYADSVKGRFTISRDNAKNSLYLQMNSLRAEDTAVYYCARERAGFSPVNAFDIWGQGTMVTVSS VL: QSVLTQPASVSGSPGQSITISCTGSSSDVGSYNLVSWYQQHPGKAPKLMIYDDNRRPSGISTRFSGSKSGNTASLTVSGLQAEDEAYYYCSSYAGRNNDVIFGGGTQLTVL"
  pEC50: 8.71
